meta.source: patent US20250270213A1

- Tested on: T47D (PIK3CA H1047R) cells
- assay_comment: pS473 AKT assay with 2.5% FBS, T47D cells
- Format: cell-based
- stated_conditions: pSer473 AKT, DMEM with 2.5% FBS, 2 h treatment, read-out: T47D_IC50
pIC50: −log10 of the molar value.
parameter: pIC50

{"compound": "CCn1ncc2c3c(C(C)Nc4ccc(Cl)nc4-c4ccc(C(=O)O)cc4)cc(C)cc3c(=O)n(C)c21 (stereo not shown) [Example 232]", "reported": "> 6.00"}

* * *

- System: SKBR3 (PIK3CA WT) cells
- assay_comment: pS473 AKT assay, SKBR3 cells
- Type: cell-based
- stated_conditions: Homo sapiens, SK-BR-3, pSer473 AKT, complete medium with 10% fetal bovine serum, 2 h treatment, read-out: SKBR3_IC50

{"compound": "Cc1cc(C(C)Nc2ccccc2C(=O)O)c2c(c1)c(=O)n(C)c1c(-c3ccccc3)cnn21 (stereo not drawn) [Compound I-2]", "IC50": "> 30 µM"}
{"compound": "C=Cc1cnn2c3c(C(C)Nc4ccccc4C(=O)O)cc(C)cc3c(=O)n(C)c12 (stereo not drawn) [Compound I-3]", "IC50": "> 30 µM"}
{"compound": "Cc1cc(C(C)Nc2ccccc2C(=O)O)c2c(c1)c(=O)n(C)c1ccnn21 (stereo not drawn) [Compound I-1]", "IC50": "> 30 µM"}

* * *

- Tested on: T47D (PIK3CA H1047R) cells
- assay_comment: pS473 AKT assay, T47D cells
- Type: cell-based
- stated_conditions: Homo sapiens, pSer473 AKT, complete medium with 10% fetal bovine serum, 2 h treatment, read-out: T47D_IC50
pIC50: −log10 of the molar value.
Listed here are compounds together with their documented pIC50.
parameter: pIC50

{"compound": "Cc1cc(C(C)Nc2ccccc2C(=O)O)c2c(c1)c(=O)n(C)c1c(-c3ccccc3)cnn21 (stereo not drawn)", "reported": "5.30 to 6.00"}
{"compound": "Cc1cc(C(C)Nc2ccccc2C(=O)O)c2c(c1)c(=O)n(C)c1ccnn21 (stereo not drawn)", "reported": "5.30 to 6.00"}
{"compound": "C=Cc1cnn2c3c(C(C)Nc4ccccc4C(=O)O)cc(C)cc3c(=O)n(C)c12 (stereo not drawn)", "reported": "5.30 to 6.00"}
